Origin of measurements: the Bradley open melting point set (2014)

Could you please report measured melting point for the items listed next?
Answers are plain numbers, in °C.

Here's what some known entries look like.
{"columns": ["COMPOUND", "UNIT SYMBOL", "melting point"],
 "data": [
  ["OCc1ccc(-c2ccccc2)cc1 [p-phenylbenzyl alcohol]", "°C", 105],
  ["CCOC(=O)/C(C#N)=C\\c1ccc(-c2ccccc2)o1 [Ethyl (2Z)-2-cyano-3-(5-phenyl-2-furyl)acrylate]", "°C", 117]
]}

API: the following record is the query input.
Data request, read-out melting point, for CCCN(CCC)C(=O)Cc1c(-c2ccc(Cl)cc2)nc2ccc(Cl)cn12 [alpidem] 140

###

Could you please report measured melting point for the items listed next?
Give bare numbers, in °C.

Here's what some known entries look like.
{"columns": ["MOLECULE", "melting point, °C"],
 "data": [
  ["CC1(C)CC(=O)c2c(cc3c(c2[Si](C)(C)C)-c2ccccc2OC3)C1", 143],
  ["Cc1ccc(-c2ccccc2)s1", 48],
  ["CCOC(=O)OCC [Diethyl carbonate]", -43],
  ["CCCCCCCCCCCCCCCCCC(=O)O", 71],
  ["COc1ccccc1N", 6]
]}

For each of the molecules below, state melting point.
1. C=C(C)C(=O)OC [methyl methacrylate]
2. c1ccc2cc3ccccc3cc2c1
3. COC(=O)c1ccc(C)cc1 [methyl_4-methylbenzoate]
4. C#CCN1C(=O)c2ccccc2C1=O [N-propargylphthalimide]
5. BrCBr
6. C=C(C)C1CC=C(C)/C(=N/O)C1 (stereo not drawn)
7. Cc1cc(O)ccc1F
8. Nc1ccccc1I

1. -48
2. 216
3. 37
4. 150
5. -53
6. 72
7. 30
8. 58

For each of the molecules below, state melting point.
1. Brc1ccnc(-c2ccc(Br)nc2)c1
2. CCCCCCCCCCCCCCCCC [heptadecane]
3. O=C(O)CCCc1ccccc1

[129, 22, 51]

For each of the molecules below, state melting point.
1. CCCC(N)=O [butyramide]
2. C=Cc1ccc([N+](=O)[O-])cc1

1. 116
2. 29

For each of the molecules below, state melting point.
1. O=C(CCBr)N1CCN(C(=O)CCBr)CC1
2. O=S(=O)(c1ccccc1)c1ccsc1
3. O=C4\C=C3/[C@@H]([C@H]2CC[C@]1([C@@H](CC[C@]1(C#C)O)[C@@H]2CC3)CC)CC4 [(-)-levonorgestrel]
4. CC(=O)OCC1OC(C(N)=O)C(OC(C)=O)C(OC(C)=O)C1OC(C)=O (stereo not drawn)
5. Nc1cccc2c(=O)[nH][nH]c(=O)c12 [3-aminophthalhydrazide]
6. C[Si](C)(C)N=C=S [trimethylsilyl isothiocyanate]
7. Nc1ccc([N+](=O)[O-])cc1

1: 106; 2: 116; 3: 236; 4: 129; 5: 328; 6: -33; 7: 148

For each of the molecules below, state melting point.
1. O=C(O)c1cc(F)cc(F)c1O
2. CCCCOC(=O)c1ccccc1C(=O)OCCCC [di-n-butyl phthalate]
3. Cc1ccc(CS(=O)(=O)Cl)cc1 [alpha-p-xylenesulfonyl chloride]
4. CC(C)=NO
5. COc1ccc(/N=N/c2c(N)nn3c(C(F)(F)F)cc(C)nc23)cc1

[189, -35, 77, 62, 159]

For each of the molecules below, state melting point.
1. O=C(CCl)Nc1ccccc1[N+](=O)[O-] [2-chloro-2'-nitroacetanilide]
2. Cc1ccc(C)n1-c1ccccc1
3. N#Cc1ccc(B(O)O)s1

1: 88; 2: 50; 3: 127

###

Could you please report measured melting point for the items listed next?
Answers are plain numbers, in °C.

{"columns": ["COMPOUND", "melting point (°C)"],
 "data": [
  ["Cn1c(=O)c2[nH]cnc2n(C)c1=O", 270],
  ["N#CCc1ccccc1CC#N", 59],
  ["C=CCCCCC", -119],
  ["COC(=O)CCC(=O)OC [dimethyl succinate]", 19],
  ["CCC(=O)O[C@](Cc1ccccc1)(c1ccccc1)[C@H](C)CN(C)C", 75.5],
  ["c1cc(-c2ccncc2)ccn1", 113],
  ["O=C(O)Cc1ccc(O)c(F)c1 [3-fluoro-4-hydroxyphenylacetic acid]", 132],
  ["CN(C)c1ccc(C(C(=O)NC(C)(C)C)N(C)C(=O)CCCc2ccc3ccc4cccc5ccc2c3c45)cc1 (stereo unspecified) [Ugi product 171K (UC)]", 194]
]}

For each of the compounds below, state melting point.
1. OCc1ccccc1O [2-hydroxybenzyl alcohol]
2. N#CCc1ccc(C(=O)O)cc1
3. CS(=O)(=O)OS(C)(=O)=O [methanesulfonic anhydride]
4. COC(=O)c1c(C)nn(C(=O)OC)c1C [dimethyl 3,5-dimethyl-1H-pyrazole-1,4-dicarboxylate]
5. OB(O)c1cc(F)c(F)c(F)c1

1: 85; 2: 192; 3: 67; 4: 90; 5: 277

For each of the compounds below, state melting point.
1. Nc1cccc(CO)c1
2. N[C@H](Cc1ccccc1F)C(=O)O
3. COc1cc(F)ccc1C(=O)O

[95, 210, 135]

###

RECORDED METRIC: melting point (°C)
One number for each entry, in °C.

Here's what some known entries look like.
{"columns": ["MOLECULE", "melting point / °C"],
 "data": [
  ["c1ccc(CC2CCNCC2)cc1", 7],
  ["ClC1C(Cl)C(Cl)C(Cl)C(Cl)C1Cl (stereo not drawn) [Lindane]", 112]
]}

API: the following record is the query input.
Data request, read-out melting point, for CCOC(=O)c1cncn1C(C)c1ccccc1 (stereo not drawn) [etomidate] 67

###

// NB: equality with 100 °C counts as condition not met; only melting point strictly below is condition met

Answered examples (3):
{"columns": ["MOLECULE", "CLASSIFICATION"],
 "data": [
  ["Nc1cccc2ccccc12 [1-aminonaphthalene]", "condition met"],
  ["COC(=O)C1C(c2ccccc2)C(C#N)=C(C(SC)SC)C1(O)c1ccccc1 (configuration not stated)", "condition not met"],
  ["C [methane]", "condition met"]
]}

Kindly review the next molecule as well.
Please let me know if CCC1(OC(C)=O)CCC2(C)C(CCC3C4CCC(=O)C4(C)CCC32)C1 (configuration not stated) [3-ethyl-17-oxoandrostan-3-yl acetate] shows melting point below 100 °C. condition not met

###

Could you please report measured melting point for the items listed next?
Give bare numbers, in °C.

{"columns": ["MOLECULE", "melting point / °C"],
 "data": [
  ["C=COCCCC", -113],
  ["COc1ccc(-c2oc3c(OC)c(OC)ccc3c(=O)c2O)cc1 [3-hydroxy-4',7,8-trimethoxyflavone]", 198],
  ["Clc1cc(-c2cc(Cl)c(Cl)c(Cl)c2Cl)c(Cl)c(Cl)c1Cl", 157],
  ["N#Cc1ccc2[nH]ccc2c1", 106]
]}

API: the following record is the query input.
Data request, read-out melting point, for CCOC(=O)/C(C#N)=C\c1ccc(-c2ccccc2OC)o1 [Ethyl (2Z)-2-cyano-3-[5-(2-methoxyphenyl)-2-furyl]acrylate] 121

###

RECORDED METRIC: melting point (°C)
Numbers only, in °C.

Here's what some known entries look like.
{"columns": ["COMPOUND", "UNIT SYMBOL", "melting point"],
 "data": [
  ["NC(=O)N1c2ccccc2C=Cc2ccccc21 [carbamazepine]", "°C", 192],
  ["OB(O)c1cccc(Oc2ccccc2)c1", "°C", 141],
  ["CC(Br)CBr (stereo not drawn)", "°C", -55]
]}

For each of the compounds below, state melting point.
1. CC(=O)Nc1ccc(Cl)cc1C [4'-chloro-2'-methylacetanilide]
2. CCC/C=C\CCC [cis-4-octene]
3. CN(CCCC(=O)c1cccnc1)N=O [4-[Methyl(nitroso)amino]-1-(pyridin-3-yl)butan-1-one]
4. CCC(C)I (stereo not drawn)

140
-119
72
-104

Data request, read-out melting point, for `Clc1ccc(-c2cc(Cl)ccc2Cl)cc1` 65

###

The threshold is inclusive: melting point of exactly 100 °C counts as true; values below receive false.

Answered examples (4):
{"columns": ["COMPOUND", "CLASSIFICATION"],
 "data": [
  ["O=S(=O)(O)c1ccccc1", "false"],
  ["Clc1cc(Cl)c(Cl)cc1Cl [1,2,4,5-tetrachlorobenzene]", "true"],
  ["CC(CN1CCOCC1)C(C(=O)N1CCCC1)(c1ccccc1)c1ccccc1 (stereo unspecified) [dextromoramide]", "true"],
  ["O=C(O)COc1cccc(Cl)c1", "true"]
]}

Kindly review the next compound as well.
Quick check, melting point >= 100 °C? `OC(c1ccc(Cl)cc1)(c1ccc(Cl)cc1)c1ccc(Cl)cc1` false

###

// NB: equality with 80 °C counts as rule not met; only melting point strictly below is rule met

{"columns": ["MOLECULE", "CLASSIFICATION"],
 "data": [
  ["O=C(O)/C=C/c1cccc(B(O)O)c1 [3-(2-carboxyvinyl)benzeneboronic acid]", "rule not met"],
  ["CN(C)c1ccc(Br)cc1 [4-bromo-n,n-dimethylaniline]", "rule met"],
  ["Brc1ccccc1 [bromobenzene]", "rule met"],
  ["CCCCCC(=O)O [hexanoic acid]", "rule met"],
  ["O=P1(N(CCCl)CCCl)NCCCO1 (configuration not stated) [Cyclophosphamide]", "rule met"],
  ["COC(=O)CS(C)(=O)=O [methyl methylsulfonylacetate]", "rule met"],
  ["COc1ccc(C=O)cc1OC [veratraldehyde]", "rule met"],
  ["Cc1ccc(Cl)c(O)c1 [2-chloro-5-methylphenol]", "rule met"]
]}

Please let me know if CCCSCCC [di-n-propyl sulfide] shows melting point below 80 °C. rule met

Please let me know if N#CCc1ccccc1[N+](=O)[O-] [2-nitrophenylacetonitrile] shows melting point below 80 °C. rule not met

Please let me know if Clc2cccc(Cl)c2N=C1/NCCN1 [clonidine] shows melting point below 80 °C. rule not met

Please let me know if CCCCCCC(C)C [2-Methyloctane] shows melting point below 80 °C. rule met

Please let me know if O=C(O)C(S)C(S)C(=O)O (configuration not stated) [2,3-Disulfanylsuccinic acid] shows melting point below 80 °C. rule not met

Please let me know if CC(Br)Br [1,1-dibromoethane] shows melting point below 80 °C. rule met

Please let me know if C1CCNC1 [pyrrolidine] shows melting point below 80 °C. rule met
